Numbers sourced from PubChem BioAssay (Tox21).

ASSAY NOTES: qHTS assay to identify small molecule antagonists of the androgen receptor (AR) signaling pathway using the MDA cell line - cell viability counter screen (AID 743041; further: nearly all actives have a fitted effect of over 45% in size)
CONDITION DESCRIPTION: MDA-kb2 viability, CellTiter-Fluor, 16 h, cells co-treated with R1881 androgen agonist; series mostly up to 70.3 µM
Results filed as inconclusive are left out. Active and inactive are the calls of the source. The call rests on the fitted dose curve; in most records, active means well fitted cell-killing curve with a large enough effect in the repeat runs; inconclusive means weak or mixed curves, or effect the other way; inactive means flat fitted curve, though single readings scatter.
RECORDED ENDPOINT: outcome

Consider the following illustrative entries.
>>> result("COCC(C)O (configuration not stated)")
"inactive"
>>> result("CC(=O)CCc1ccccc1")
"inactive"
>>> result("C=C(C)C(=O)OCCC[Si](OC)(OC)OC")
"inactive"
>>> result("O=Nc1ccc(O)cc1")
"inactive"
>>> result("Oc1c(Cl)cc(Cl)c(Cl)c1Cl")
"inactive"
>>> result("O=C(Cl)c1c(Cl)c(Cl)c(C(=O)Cl)c(Cl)c1Cl")
"inactive"
>>> result("Oc1ccc2ccccc2c1N=Nc1ccccc1")
"inactive"
>>> result("CN(CCOc1ccc(CC2SC(=O)NC2=O)cc1)c1ccccn1 (configuration not stated)")
"inactive"
>>> result("C/C=C(C)/C=C/C=C(C)C")
"inactive"
>>> result("Nc1nc2ncc(CNc3ccc(C(=O)N[C@@H](CCC(=O)O)C(=O)O)cc3)nc2c(=O)[nH]1")
"inactive"

Task: Dear colleague, please send me the reported outcome for CC1=C(CC(=O)O)c2cc(F)ccc2/C1=C\c1ccc(S(C)=O)cc1 (configuration not stated) when you can.
Result: inactive

Task: Please supply the value of reported outcome for the item `Cc1cc(Cc2ccc(N)c(C)c2)ccc1N`
Result: inactive

Task: State its outcome for this molecule: `C=C(C)C(=O)OCCCCCCCCCCCC`
Result: inactive

Task: For `CCCCCCOC(C)=O` , write its outcome.
Result: inactive

Task: Hello, please tell me recorded outcome for this one: CC1Cc2ccccc2N1NC(=O)c1ccc(Cl)c(S(N)(=O)=O)c1 (configuration not stated)
Result: inactive

Task: Return outcome for the following molecule: `C=C(C#N)C(=O)OCC`
Result: inactive

Task: Using the record for `COC(=O)c1ccc(C(=O)OC)cc1` , state its measured outcome.
Result: inactive
